# TEST METHOD NOTES: TOR pathway RTG branch CIT2 reporter changes – S. cerevisiae, GFP fusion, multiplex flow cytometry, primary screen (AID 1870);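 further: barcoded CIT2-GFP strain pooled with four other GFP strains with rapamycin as positive control; median GFP fluorescence per well over plate mean of DMSO wells so 100% = DMSO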
# CONDITION SET: S. cerevisiae CIT2-GFP expression, 3 h, at 10 µM, stronger effect = higher value
Measured percent response of DMSO control, listed per entry.
# value in %; strip the unit string

# COMPOUND, ASSAY VALUE
rows = [
    ("C/C(=N\\NC(=O)c1ccccc1[N+](=O)[O-])c1ccc(Br)s1", 107),
]

Briefly, percent response of DMSO control measured for CCO/C([O-])=N/c1c[n+](N2CCOCC2)no1 : 103

----------
# TEST METHOD NOTES: calorie-restriction mimetic ROS inhibitors, yeast – validation compound set, pilot screen (AID 2706);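 further: yeast exposed to compound for one week at 30 degrees C before staining; 100% = mean of all compound wells on the same plate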
# CONDITION SET: S. cerevisiae aging, superoxide DHE fluorescence; at 10 µM; stronger effect = lower value
PROPERTY MEASURED: superoxide response (% of plate) (%)
# value in %; strip the unit string

Known superoxide response (% of plate) results, listed for orientation:
# MOLECULE, superoxide response (% of plate) (%)
records = [
    ("COc1ccc2oc(C)c(C(N)=O)c2c1", 96),
    ("COc1ccccc1OS(=O)(=O)c1ccc(NC(C)=O)cc1", 97),
    ("CCNC(=O)c1c(N)sc2c1CCCCC2", 101),
    ("Clc1ccc(CCNc2ncnc3nc[nH]c23)cc1", 108),
    ("CCCCOC(=O)c1ccc(N)cc1", 91.1),
    ("COC1CCN(C(=O)c2ccc(OC3CCN(Cc4ccccn4)CC3)cc2)CC1", 89.2),
    ("COc1ccc2[nH]c(=O)c3c(c2c1)OC(C)(C)C=C3", 99.1),
    ("COc1cc2cc(C)nc(Cc3cccc4ccccc34)c2cc1OC", 95.6),
    ("CCN(CCCc1ccccc1)CCCc1ccccc1", 118),
    ("O=C(NO)c1ccccc1O", 95.5),
]

Briefly, superoxide response (% of plate) measured for CC(C)Cc1ccc(C(C)C(=O)O)cc1 (centres undefined) : 144

Briefly, superoxide response (% of plate) measured for Cc1cnc(NC(=O)C2=C(O)c3ccccc3S(=O)(=O)N2C)s1 : 109

Briefly, superoxide response (% of plate) measured for COc1cc(C(=O)NCCc2c[nH]c3ccccc23)ccc1OCc1c(C)noc1C : 110

Briefly, superoxide response (% of plate) measured for COc1ccc(NC(=O)CC2C(=O)N(C)C(=S)N2Cc2ccncc2)cc1 (centres undefined) : 105

Briefly, superoxide response (% of plate) measured for Cc1ccc2c(c1)c(C)cc(=O)n2CCC(=O)O : 97.2

Briefly, superoxide response (% of plate) measured for CCOC(=O)Cn1c(C)cc(=O)c2ccccc21 : 103

Briefly, superoxide response (% of plate) measured for CO[C@H]1C=CO[C@@]2(C)Oc3c(C)c(O)c4c(O)c(c(C=NN5CCN(C)CC5)c(O)c4c3C2=O)NC(=O)C(C)=CC=C[C@H](C)[C@H](O)[C@@H](C)[C@@H](O)[C@@H](C)[C@H](OC(C)=O)[C@@H]1C : 105

Briefly, superoxide response (% of plate) measured for CC(=O)c1c(C)c(C)c2n1CCn1c(C)ccc1-2 : 99.4

Briefly, superoxide response (% of plate) measured for O=C(CS(=O)(=O)Cc1ccccc1)NCc1ccc2c(c1)OCO2 : 92

Briefly, superoxide response (% of plate) measured for COc1ccc(S(=O)(=O)NCc2ccco2)c2ccccc12 : 89.3

Briefly, superoxide response (% of plate) measured for CS(=O)(=O)c1cccc(C(=O)Oc2ccccc2)c1 : 99

Briefly, superoxide response (% of plate) measured for NC(=O)c1cnccn1 : 102

Briefly, superoxide response (% of plate) measured for Cc1cccc2c(=O)n3c(nc12)CCCCC3 : 105

Briefly, superoxide response (% of plate) measured for Cc1onc(-c2c(Cl)cccc2Cl)c1C(=O)NC1C(=O)N2C1SC(C)(C)C2C(=O)O (centres undefined) : 83.9

----------
# TESTED ON: Beta-2 adrenergic receptor (Homo sapiens) (UniProt P07550)
# Sequence (P07550 whole entry, looked up): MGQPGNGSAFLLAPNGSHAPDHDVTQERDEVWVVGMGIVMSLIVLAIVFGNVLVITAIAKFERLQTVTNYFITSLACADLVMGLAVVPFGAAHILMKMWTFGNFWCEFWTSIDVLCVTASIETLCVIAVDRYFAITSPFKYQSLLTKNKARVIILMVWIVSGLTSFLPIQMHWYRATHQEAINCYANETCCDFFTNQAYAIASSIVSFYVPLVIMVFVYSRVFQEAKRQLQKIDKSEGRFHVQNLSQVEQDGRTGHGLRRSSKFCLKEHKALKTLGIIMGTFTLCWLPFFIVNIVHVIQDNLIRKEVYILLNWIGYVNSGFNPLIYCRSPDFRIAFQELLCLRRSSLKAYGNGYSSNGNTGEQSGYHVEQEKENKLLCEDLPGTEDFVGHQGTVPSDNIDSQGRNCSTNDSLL
# TEST METHOD NOTES: agonist-induced loss of surface beta2AR – cell-based, FAP fluorogen, flow cytometry, validation set, pilot screen (AID 504459);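 further: agonist-driven loss of surface beta2AR via internalization measured by FAP dye flow cytometry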
# CONDITION SET: Am2.2-beta2AR cells, at 10 µM, stronger effect = higher value
PROPERTY MEASURED: response (%)
# value in %; strip the unit string

# COMPOUND, response / %
records = [
    ("COc1ccc2[nH]c(CN3CCN(CC(C)C)C(CCO)C3)c(C)c2c1 (stereo unspecified)", -3.42),
    ("CC(=O)N1c2ccccc2C(C)=CC1(C)C", -23.5),
    ("O=C(CCC(=O)c1cccs1)c1cccs1", -4.9),
    ("COc1ccc(CNCCC(c2ccc(F)cc2)c2ccc(OC(C)C)cc2)cc1OC (stereo unspecified)", 24.3),
    ("CC1(C#CC[N+]2(C)CCCCC2)CCC2C(O1)c1ccccc1OC2(C)C (stereo unspecified)", 5.86),
]

Then this compound:
Case COc1cc(COc2ccc3c(C)c(Cc4ccccc4)c(=O)oc3c2)cc(OC)c1OC , Beta-2 adrenergic receptor (Homo sapiens) (UniProt P07550), response recorded as 5.22

----------
# System: Ras-related protein Rab-7a (dog), GTP binding
# TEST METHOD NOTES: blockers of fluorescent GTP binding to Rab7 – biochemical, wildtype, multiplex bead flow cytometry, dose response (AID 1336)
# CONDITION SET: bead-based flow cytometry; series mostly up to 100 µM
Potency and affinity values are given separately. The source made the active and inactive calls. The rule behind the calls is not given here.
PROPERTY MEASURED: GTP binding, % of control

# COMPOUND, TESTED ON, PROPERTY MEASURED, ASSAY VALUE
measured = [
    ("Cc1ccccc1COc1c(C)cccc1C(=O)O", "Ras-related protein Rab-7a (dog), GTP binding", "GTP binding, % of control", "inactive"),
    ("CSc1nc2ccc(NC(=O)C3CC(=O)N(Cc4ccco4)C3)cc2s1 (stereo unspecified)", "Ras-related protein Rab-7a (dog), GTP binding", "GTP binding, % of control", "inactive"),
    ("Cc1ccc(OCc2ccccc2C)c(C(=O)O)c1", "Ras-related protein Rab-7a (dog), GTP binding", "GTP binding, % of control", "inactive"),
    ("CCOc1ccc(-n2nc3c(SCCN4CCCC4)nnc(C)c3c2C)cc1", "Ras-related protein Rab-7a (dog), GTP binding", "GTP binding, % of control", "inactive"),
    ("COc1cc2[nH]c(=S)nc(NC3CCCCCC3)c2cc1OC", "Ras-related protein Rab-7a (dog), GTP binding", "GTP binding, % of control", "inactive"),
    ("O=C1/C(=C/c2ccc(N3CCOCC3)o2)SC(=Nc2ccccc2)N1CCc1c[nH]c2ccccc12", "Ras-related protein Rab-7a (dog), GTP binding", "GTP binding, % of control", "inactive"),
]

Briefly, GTP binding, % of control measured for Cc1cccc(OCC(=O)N/N=C/c2ccc3c(c2)OCO3)c1 : inactive

----------
# TEST METHOD NOTES: reduced mouse 2C T cell binding to pMHC/ICAM-1 vesicles – MLPCN validation set, flow cytometry, LFA-1/ICAM-1 modulator project, pilot screen (AID 2523)
# CONDITION SET: 2C mouse CD8+ T cells, at 7 µM, stronger effect = lower value; measured here: CD8+/vesicle+ event percentage
PROPERTY MEASURED: double positive events (%)
# value in %; strip the unit string

Known double positive events results, listed for orientation:
# INPUT SMILES, PROPERTY MEASURED, UNITS TEXT, ASSAY VALUE
data = [
    ("COC1CCN(C(=O)c2ccc(OC3CCN(Cc4ccccn4)CC3)cc2)CC1", "double positive events", "%", 65),
    ("COc1ccc(C(=O)Nc2cccnc2)cc1C(=O)Nc1cccnc1", "double positive events", "%", 65),
]

Then this compound:
Briefly, double positive events measured for Cc1ccc(C)c(OCCCC(C)(C)C(=O)O)c1 : 62.8

----------
# TESTED ON: Integrin beta-1 (Homo sapiens) + Integrin alpha-4 (Homo sapiens) (UniProt P13612+P05556)
# Sequence (P05556 whole entry, looked up): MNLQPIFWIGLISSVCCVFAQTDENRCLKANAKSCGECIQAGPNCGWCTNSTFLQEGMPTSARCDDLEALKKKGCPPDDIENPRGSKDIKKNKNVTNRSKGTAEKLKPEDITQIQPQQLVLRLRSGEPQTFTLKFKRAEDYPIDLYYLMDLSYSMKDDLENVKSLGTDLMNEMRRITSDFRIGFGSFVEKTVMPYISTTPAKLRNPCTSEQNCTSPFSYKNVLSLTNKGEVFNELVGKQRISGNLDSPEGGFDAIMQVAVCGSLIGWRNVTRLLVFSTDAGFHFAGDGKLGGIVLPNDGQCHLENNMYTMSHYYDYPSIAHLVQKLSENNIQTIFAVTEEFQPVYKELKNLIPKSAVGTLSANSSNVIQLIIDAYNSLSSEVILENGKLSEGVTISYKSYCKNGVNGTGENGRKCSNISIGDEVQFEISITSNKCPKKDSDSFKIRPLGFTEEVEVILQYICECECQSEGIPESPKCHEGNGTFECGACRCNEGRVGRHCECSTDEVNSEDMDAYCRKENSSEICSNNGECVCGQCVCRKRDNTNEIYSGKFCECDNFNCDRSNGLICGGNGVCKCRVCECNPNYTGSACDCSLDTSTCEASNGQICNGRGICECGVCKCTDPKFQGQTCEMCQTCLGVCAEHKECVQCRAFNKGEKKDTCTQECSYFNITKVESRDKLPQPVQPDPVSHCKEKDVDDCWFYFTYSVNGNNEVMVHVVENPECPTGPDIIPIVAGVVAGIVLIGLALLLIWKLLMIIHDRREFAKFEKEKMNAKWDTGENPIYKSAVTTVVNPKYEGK
# Sequence (P13612 whole entry, looked up): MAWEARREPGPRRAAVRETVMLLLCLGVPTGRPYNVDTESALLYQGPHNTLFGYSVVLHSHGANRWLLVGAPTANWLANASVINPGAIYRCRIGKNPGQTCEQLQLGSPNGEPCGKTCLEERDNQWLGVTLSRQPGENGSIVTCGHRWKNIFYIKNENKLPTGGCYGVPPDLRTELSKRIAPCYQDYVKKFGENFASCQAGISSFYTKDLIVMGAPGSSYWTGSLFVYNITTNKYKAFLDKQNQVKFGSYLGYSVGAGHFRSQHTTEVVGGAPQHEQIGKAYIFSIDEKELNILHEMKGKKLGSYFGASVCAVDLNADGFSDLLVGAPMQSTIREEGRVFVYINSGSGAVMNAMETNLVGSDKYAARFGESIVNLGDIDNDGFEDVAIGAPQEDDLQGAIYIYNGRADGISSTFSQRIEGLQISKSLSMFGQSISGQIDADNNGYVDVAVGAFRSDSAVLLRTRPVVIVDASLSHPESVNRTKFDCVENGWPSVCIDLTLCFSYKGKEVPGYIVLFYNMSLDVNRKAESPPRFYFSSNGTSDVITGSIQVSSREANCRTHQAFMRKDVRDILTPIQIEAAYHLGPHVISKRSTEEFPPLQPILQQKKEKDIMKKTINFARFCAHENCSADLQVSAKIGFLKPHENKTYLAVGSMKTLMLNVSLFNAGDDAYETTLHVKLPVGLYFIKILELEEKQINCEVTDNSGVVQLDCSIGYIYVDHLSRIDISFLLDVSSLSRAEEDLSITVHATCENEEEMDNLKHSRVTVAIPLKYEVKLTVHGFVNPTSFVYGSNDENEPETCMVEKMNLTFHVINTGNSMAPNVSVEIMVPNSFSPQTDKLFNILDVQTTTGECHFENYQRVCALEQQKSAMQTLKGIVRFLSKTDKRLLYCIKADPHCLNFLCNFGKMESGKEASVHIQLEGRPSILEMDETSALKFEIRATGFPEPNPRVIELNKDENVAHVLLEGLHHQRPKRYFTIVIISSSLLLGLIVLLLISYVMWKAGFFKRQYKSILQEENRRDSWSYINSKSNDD
# TEST METHOD NOTES: alpha4beta1 integrin LIBS antibody binding reduction – U937 cells, HUTS-21 mAb, flow cytometry, validation set, VLA-4 allosteric modulator project, pilot screen (AID 2674);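 further: antibody binding induced by the VLA-4 ligand LDV present at three times its Kd; 0% = LDV ligand with antibody and no compound and 100% = antibody without LDV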
# CONDITION SET: HUTS-21 LIBS mAb binding, at 6.7 µM, stronger effect = higher value, binding induced by LDV ligand
PROPERTY MEASURED: inhibition (%)
# value in %; strip the unit string

# MOLECULE, UNITS TEXT, inhibition
rows = [
    ("CCOC(=O)Cn1c(C)cc(=O)c2ccccc21", "%", 10.5),
    ("Cc1[nH]c2ccccc2c1C(=O)C(=O)NCc1ccco1", "%", -14.7),
    ("O=C1Cc2ccccc2C(c2ccccc2)N1 (stereo unspecified)", "%", -19.1),
    ("Cc1ccc(S(=O)(=O)N2CCC(C(=O)N[C@@H](C)C(=O)NC3CCS(=O)(=O)C3)CC2)cc1 (stereo partly specified)", "%", 12.3),
    ("C[C@H](NC(=O)C1(c2ccccc2)CCN(C(=O)[C@H]2CSCN2C(=O)OC(C)(C)C)CC1)C(=O)O", "%", 17.6),
    ("CC(C)(C)C(=O)N1CCCC1C(=O)O (stereo unspecified)", "%", 4.84),
]

Briefly, inhibition measured for CSCC[C@H](NC(=O)NC1CCCC1)C(=O)O : 8.4

Briefly, inhibition measured for CC1(C)CC(=O)c2cn3c(nc2C1)nc1ccccc13 : 9.63

Briefly, inhibition measured for COc1c2c(nc3occc13)C(CC=C(C)C)(OC)C(O)CC2 (stereo unspecified) : -4.21
